EXPERIMENTAL SYSTEM: T1, IL-17A (UniProt Q16552 24-155)
T1 construct: also called Interleukin-17
T1 sequence (looked up): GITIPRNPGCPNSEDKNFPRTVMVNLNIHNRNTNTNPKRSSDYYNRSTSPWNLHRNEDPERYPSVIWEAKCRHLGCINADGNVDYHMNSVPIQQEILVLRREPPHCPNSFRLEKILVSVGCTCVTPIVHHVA
RUN DESCRIPTION: IL-17A binding assay, method analogous to WO 2011/141823; replicate n2
Starred links: 1 amine or outer side, 2 acyl side, 3 side chain; linkers in the order of their positions; H or OH if unused. Positions of bridges follow the written chain, without caps; N, C: chain ends. Non-standard residues stand in square brackets, D forms with d. No end group written: not given here. TBMB = c1c(C[*:1])cc(C[*:3])cc1C[*:2]; Dap(Me) = CNC[C@H](N)C(=O)O
Entries whose Ki is below 100 nM take criterion met; entries at or above 100 nM take criterion not met.

Is it true that Ki reported for Ac-ACPQDLEL[Dap(Me)]TFLFGDCA (linker 2-9-16 via TBMB, Bicyclic peptide on a TBMB scaffold; second cysteine of BCY00008655 replaced by Dap(Me); also called Ac-(28-06)(TBMB) Cys2Dap(Me)) [BCY00008649] is less than 100 nM?
criterion met

What about this binder? Ac-A[Dap(Me)]PQDLELCTFLFGD[Dap(Me)]A (linker 2-9-16 via TBMB, Bicyclic peptide on a TBMB scaffold; first and third cysteines of BCY00008655 replaced by Dap(Me); also called Ac-(28-06)(TBMB) Cys13Dap(Me)) [BCY00008653]
criterion met

What about this binder? Ac-ACPQDLELCTFLFGDCA (linker 2-9-16 via TBMB, Bicyclic peptide on a TBMB scaffold; also called Ac-(28-06)(TBMB)) [BCY00008655]
criterion not met

What about this binder? Ac-A[Dap(Me)]PQDLELCTFLFGDCA (linker 2-9-16 via TBMB, Bicyclic peptide on a TBMB scaffold; first cysteine of BCY00008655 replaced by Dap(Me); also called Ac-(28-06)(TBMB) Cys1Dap(Me)) [BCY00008648]
criterion not met

What about this binder? Ac-A[Dap(Me)]PQDLEL[Dap(Me)]TFLFGDCA (linker 2-9-16 via TBMB, Bicyclic peptide on a TBMB scaffold; first and second cysteines of BCY00008655 replaced by Dap(Me); also called Ac-(28-06)(TBMB) Cys12Dap(Me)) [BCY00008651]
criterion not met

What about this binder? Ac-A[Dap(Me)]PQDLEL[Dap(Me)]TFLFGD[Dap(Me)]A (linker 2-9-16 via TBMB, Bicyclic peptide on a TBMB scaffold; all three cysteines of BCY00008655 replaced by Dap(Me); also called Ac-(28-06)(TBMB) Cys123Dap(Me)) [BCY00008654]
criterion met
